Reference source: patent US20260364078A1

protocol details: Kinetic solubility (37 °C/24 h)
Assay type: physicochemical
experimental parameters: FeSSIF
test readout: solubility kinetic at 24 h

QUERY: Any idea what solubility kinetic at 24 h was measured for O=c1[nH]cnc2c(CN3C[C@H](CO)[C@@H](O)C3)c[nH]c12 [Glutarate Type A] ?
RESULT: > 16.8 mg/mL

----------
protocol details: Approximate solubility of starting material at RT
Type: physicochemical
experimental parameters: organic solvent or mixture; DMAc; RT (~27 °C)
test readout: solubility

QUERY: Any idea what solubility was measured for O=c1[nH]cnc2c(CN3C[C@H](CO)[C@@H](O)C3)c[nH]c12 [Glutarate Type A] ?
RESULT: 2000 to 6500 µg/mL

----------
protocol details: Approximate solubility of starting material at RT
Format: physicochemical
experimental parameters: organic solvent or mixture; EtOAc; RT (~27 °C)
test readout: solubility

QUERY: Any idea what solubility was measured for O=c1[nH]cnc2c(CN3C[C@H](CO)[C@@H](O)C3)c[nH]c12 [Glutarate Type A] ?
RESULT: < 2100 µg/mL

----------
protocol details: Kinetic solubility (37 °C/24 h)
Type: physicochemical
experimental parameters: FaSSIF
test readout: solubility kinetic at 24 h

QUERY: Any idea what solubility kinetic at 24 h was measured for O=c1[nH]cnc2c(CN3C[C@H](CO)[C@@H](O)C3)c[nH]c12 [Glutarate Type A] ?
RESULT: > 16.8 mg/mL

----------
protocol details: Physicochemical stability (2-week, open conditions)
experimental parameters: 2-week; 60 °C; read-out: Purity
test readout: remaining at 336 h (%)
Answer in %, number only, no unit symbol.

QUERY: Any idea what remaining at 336 h was measured for O=c1[nH]cnc2c(CN3C[C@H](CO)[C@@H](O)C3)c[nH]c12 [Glutarate Type A] ?
RESULT: 97.3

----------
protocol details: Approximate solubility of starting material at RT
Format: physicochemical
experimental parameters: organic solvent or mixture; MEK; RT (~27 °C)
test readout: solubility

QUERY: Any idea what solubility was measured for O=c1[nH]cnc2c(CN3C[C@H](CO)[C@@H](O)C3)c[nH]c12 [Glutarate Type A] ?
RESULT: < 1900 µg/mL

----------
protocol details: Approximate solubility of starting material at RT
Format: physicochemical
experimental parameters: organic solvent or mixture; NMP; RT (~27 °C)
test readout: solubility

QUERY: Any idea what solubility was measured for O=c1[nH]cnc2c(CN3C[C@H](CO)[C@@H](O)C3)c[nH]c12 [Glutarate Type A] ?
RESULT: 1.9 to 6.3 mg/mL

----------
protocol details: Approximate solubility of starting material at RT
Format: physicochemical
experimental parameters: organic solvent or mixture; 1,4-Dioxane; RT (~27 °C)
test readout: solubility

QUERY: Any idea what solubility was measured for O=c1[nH]cnc2c(CN3C[C@H](CO)[C@@H](O)C3)c[nH]c12 [Glutarate Type A] ?
RESULT: < 2000 µg/mL

----------
protocol details: Approximate solubility of starting material at RT
Type: physicochemical
experimental parameters: organic solvent or mixture; MIBK; RT (~27 °C)
test readout: solubility

QUERY: Any idea what solubility was measured for O=c1[nH]cnc2c(CN3C[C@H](CO)[C@@H](O)C3)c[nH]c12 [Glutarate Type A] ?
RESULT: < 1800 µg/mL

----------
protocol details: Approximate solubility of starting material at RT
Format: physicochemical
experimental parameters: organic solvent or mixture; IPAc; RT (~27 °C)
test readout: solubility

QUERY: Any idea what solubility was measured for O=c1[nH]cnc2c(CN3C[C@H](CO)[C@@H](O)C3)c[nH]c12 [Glutarate Type A] ?
RESULT: < 2000 µg/mL
